// reported kon per item
Target: T1, recombinant human TIGIT (human, UniProt Q495A1 22-141, limits assumed)
T1 construct: recombinant human TIGIT used in Carterra SPR; also called hTIGIT
T1 sequence (looked up): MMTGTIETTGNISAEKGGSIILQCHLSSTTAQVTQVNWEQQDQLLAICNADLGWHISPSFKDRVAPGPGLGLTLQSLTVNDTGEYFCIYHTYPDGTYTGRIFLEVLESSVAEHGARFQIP
Test: SPR Carterra, average
Endpoint Label: kon (M⁻¹ s⁻¹)

>>> result_number("TIGIT-SC151 (Fc fusion, VHH-Fc fusion in assay) VHH: EVQLVESGGGLVQPGGSLRLSCAASGFPFSIYPMGWFRQAPGKEREFVAAISASGTLRAYADSVKGRFTISADNSKNTAYLQMNSLKPEDTAVYYCARSSSWVRIFDYWGQGTLVTVSS")
285000
>>> result_number("TIGIT-SC97 (Fc fusion, VHH-Fc fusion in assay) VHH: EVQLVESGGGLVQPGGSLRLSCAASGTAASFNPMGWFRQAPGKEREFVAAISWSGGSTNYADSVKGRFTISADNSKNTAYLQMNSLKPEDTAVYYCVTYSAYDFRNAWGQGTLVTVSS")
942000
>>> result_number("TIGIT-SC158 (Fc fusion, VHH-Fc fusion in assay) VHH: EVQLVESGGGLVQPGGSLRLSCAASGFTFSPSWMGWFRQAPGKEREWVASVLRGGYTWYADSVKGRFTISADNSKNTAYLQMNSLKPEDTAVYYCAREGRSSSPWFDPWGQGTLVTVSS")
18200
>>> result_number("TIGIT-SC154 (Fc fusion, VHH-Fc fusion in assay) VHH: EVQLVESGGGLVQPGGSLRLSCAASGFAFSSDWMGWFRQAPGKEREWVASVLRGGYTWYADSVKGRFTISADNSKNTAYLQMNSLKPEDTAVYYCAGDYRGFEMAFDPWGQGTLVTVSS")
130000
>>> result_number("TIGIT-SC48 (Fc fusion, VHH-Fc fusion in assay) VHH: EVQLVESGGGLVQPGGSLRLSCAASGRTSDIYGMGWFRQAPGKEREAVASIWRSGGNTYYADSVKGRFTISADNSKNTAYLQMNSLKPEDTAVYYCASSTLDVWGQGTLVTVSS")
"7.72e+06"
>>> result_number("TIGIT-SC64 (Fc fusion, VHH-Fc fusion in assay) VHH: EVQLVESGGGLVQPGGSLRLSCAASGFAFSNFGMGWFRQAPGKERELVSAIGWSGASTYYADSVKGRFTISADNSKNTAYLQMNSLKPEDTAVYYCARRGRTIPFDYWGQGTLVTVSS")
207000
>>> result_number("TIGIT-SC144 (Fc fusion, VHH-Fc fusion in assay) VHH: EVQLVESGGGLVQPGGSLRLSCAASGFTLENNMMGWFRQAPGKEREFVAAISPSGTLRAYADSVKGRFTISADNSKNTAYLQMNSLKPEDTAVYYCAGIHDSGVPLGNWGQGTLVTVSS")
140000
>>> result_number("TIGIT-SC201 (Fc fusion, VHH-Fc fusion in assay) VHH: EVQLVESGGGLVQPGGSLRLSCAASGFTFSPSWMGWFRQAPGKEREWVASVLRGGYTWYADSVKGRFTISADNSKNTAYLQMNSLKPEDTAVYYCTRDGGFDPWGQGTLVTVSS")
567
>>> result_number("TIGIT-SC53 (Fc fusion, VHH-Fc fusion in assay) VHH: EVQLVESGGGLVQPGGSLRLSCAASGFTFSPSWMGWFRQAPGKEREWVASVLRGGYTWYADSVKGRFTISADNSKNTAYLQMNSLKPEDTAVYYCARESTIVGAIDSWGQGTLVTVSS")
48800
>>> result_number("TIGIT-SC114 (Fc fusion, VHH-Fc fusion in assay) VHH: EVQLVESGGGLVQPGGSLRLSCAASGNTFSGGFMGWFRQAPGKEREWVASVLRGGYTWYADSVKGRFTISADNSKNTAYLQMNSLKPEDTAVYYCATVGGRQRTLFDDWGQGTLVTVSS")
50700
>>> result_number("TIGIT-SC75 (Fc fusion, VHH-Fc fusion in assay) VHH: EVQLVESGGGLVQPGGSLRLSCAASGFIGNYHAMGWFRQAPGKEREFVAAIRWSDGSSYYADSVKGRFTISADNSKNTAYLQMNSLKPEDTAVYYCAKWSYYGSGLYGMDVWGQGTLVTVSS")
50500
>>> result_number("TIGIT-SC191 (Fc fusion, VHH-Fc fusion in assay) VHH: EVQLVESGGGLVQPGGSLRLSCAASGFVFSSDWMGWFRQAPGKEREWVASVLRGGYTWYADSVKGRFTISADNSKNTAYLQMNSLKPEDTAVYYCARGDSMDVWGQGTLVTVSS")
313000
>>> result_number("TIGIT-SC167 (Fc fusion, VHH-Fc fusion in assay) VHH: EVQLVESGGGLVQPGGSLRLSCAASGRTFSFMGWFRQAPGKEREWVASVLRGGYTWYADSVKGRFTISADNSKNTAYLQMNSLKPEDTAVYYCAREGSGYASDYWGQGTLVTVSS")
164000
>>> result_number("TIGIT-SC115 (Fc fusion, VHH-Fc fusion in assay) VHH: EVQLVESGGGLVQPGGSLRLSCAASGNTFSGGFMGWFRQAPGKEREWVASVLRGGYTWYADSVKGRFTISADNSKNTAYLQMNSLKPEDTAVYYCAGTGLWGQGTLVTVSS")
262000
>>> result_number("TIGIT-SC204 (Fc fusion, VHH-Fc fusion in assay) VHH: EVQLVESGGGLVQPGGSLRLSCAASGFLFNSYWMVWFRQAPGKEREFVAAIWRSGTLKAYADSVKGRFTISADNSKNTAYLQMNSLKPEDTAVYYCAADVNYGSTWRNWGQGTLVTVSS")
50800
